# tgt: Integrin alpha-IIb/beta-3 (Canis lupus familiaris)
# assay-info: Inhibition of 125I-fibrinogen binding to alpha IIb beta-3 integrin as inhibition of activated platelets
quantity-kind: IC50 (nM)

Examples from the recorded data:
molecule | units | IC50
CC(C)[C@H]1NC(=O)c2cc(cc(NC(=O)CCCCCNC(=O)c3ccc(NNC(=O)OC(C)(C)C)nc3)c2)CNC(=O)[C@H](CC(=O)O)NC(=O)CNC(=O)[C@H](CCCN=C(N)N)N(C)C1=O | nM | 9
CCOC(C)SCC(=O)NCC(CCC(=O)NCCCC[C@H]1NC(=O)c2cccc(c2)CNC(=O)[C@H](CC(=O)O)NC(=O)CNC(=O)[C@H](CCCN=C(N)N)N(C)C1=O)NC(=O)CSC(C)OCC (stereo not given in full) | nM | 11

A = CC(C)[C@H]1NC(=O)c2cccc(c2)CNC(=O)[C@H](CC(=O)O)NC(=O)CNC(=O)[C@H](CCCN=C(N)N)N(C)C1=O
B = CCOC(C)SCC(=O)NCC(CCC(=O)NCCCCCC(=O)Nc1cc2cc(c1)C(=O)N[C@H](C(C)C)C(=O)N(C)[C@@H](CCCN=C(N)N)C(=O)NCC(=O)N[C@@H](CC(=O)O)C(=O)NC2)NC(=O)CSC(C)OCC (stereo not given in full)
So which one has the bigger IC50 here, A or B ? Response format: the label of the selected entry.
B
